biological target: EGFR L858R/T790M/C797S (Homo sapiens, UniProt P00533, C797S/L858R/T790M); assay: Biochemical EGFR kinase assay (Lance Ultra TR-FRET), triple mutant L858R/T790M/C797S; settings: Km ATP; read-out: IC50 L858R/T790M/C797S (nM) Km ATP
Sequence (P00533 25-1210 T790M/C797S/L858R): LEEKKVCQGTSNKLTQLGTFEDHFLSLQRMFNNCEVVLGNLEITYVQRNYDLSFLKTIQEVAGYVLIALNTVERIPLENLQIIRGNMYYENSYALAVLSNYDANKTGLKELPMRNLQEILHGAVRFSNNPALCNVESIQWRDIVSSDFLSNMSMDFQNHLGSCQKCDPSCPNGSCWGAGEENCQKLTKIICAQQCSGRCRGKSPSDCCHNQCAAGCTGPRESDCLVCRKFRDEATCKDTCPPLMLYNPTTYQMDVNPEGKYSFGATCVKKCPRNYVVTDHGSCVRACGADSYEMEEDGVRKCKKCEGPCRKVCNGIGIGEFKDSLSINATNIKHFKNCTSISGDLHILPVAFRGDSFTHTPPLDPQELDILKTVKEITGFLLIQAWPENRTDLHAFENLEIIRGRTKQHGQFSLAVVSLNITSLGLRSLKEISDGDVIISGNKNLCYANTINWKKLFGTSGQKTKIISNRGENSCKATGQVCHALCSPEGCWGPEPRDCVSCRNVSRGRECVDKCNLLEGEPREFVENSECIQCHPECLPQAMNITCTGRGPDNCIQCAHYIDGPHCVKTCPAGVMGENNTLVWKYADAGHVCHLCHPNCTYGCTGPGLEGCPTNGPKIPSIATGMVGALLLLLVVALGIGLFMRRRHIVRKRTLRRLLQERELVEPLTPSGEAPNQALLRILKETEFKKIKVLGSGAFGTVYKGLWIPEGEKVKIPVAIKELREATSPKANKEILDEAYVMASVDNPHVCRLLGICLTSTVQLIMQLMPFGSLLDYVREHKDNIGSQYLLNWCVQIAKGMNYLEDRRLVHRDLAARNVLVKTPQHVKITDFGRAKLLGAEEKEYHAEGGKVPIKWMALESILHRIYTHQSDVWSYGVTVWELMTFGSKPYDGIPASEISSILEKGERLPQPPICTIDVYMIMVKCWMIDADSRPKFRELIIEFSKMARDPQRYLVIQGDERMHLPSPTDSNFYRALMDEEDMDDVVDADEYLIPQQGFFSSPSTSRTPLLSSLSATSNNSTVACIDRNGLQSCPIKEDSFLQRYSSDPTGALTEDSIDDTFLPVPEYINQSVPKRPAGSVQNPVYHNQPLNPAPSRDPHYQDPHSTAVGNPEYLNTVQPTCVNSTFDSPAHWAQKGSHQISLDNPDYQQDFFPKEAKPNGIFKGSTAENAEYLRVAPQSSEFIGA
Under this convention, rule met denotes IC50 strictly below 0.8 nM and rule not met denotes IC50 at or above 0.8 nM.

O=S(=O)(C1CC1)n1cc(-c2nccc(Nc3cc(N[C@H]4CC[C@@H](CO)CC4)c(-c4ccc(N5CCCC5)cn4)cn3)n2)cn1 ... rule not met
CN1CCC(Oc2ccc(-c3cnc(Nc4ccnc(-c5cnn(CC(F)F)c5)n4)cc3NC3CCCC(F)C3)nc2)CC1 (stereo not drawn) ... rule met
CN1CCC(Oc2ccc(-c3cnc(Nc4ccnc(-c5cnn(CC(F)F)c5)n4)cc3NC3CCC(F)(F)C3)nc2)CC1 (stereo not drawn) ... rule met
C[C@]1(O)CC[C@@H](Nc2cc(Nc3ccnc(-c4cnn(S(=O)(=O)C5CC5)c4)n3)ncc2-c2ccc(N3CCCC3)cn2)CC1 ... rule not met

Here's the next entry for you.
For "O=S(=O)(C1CC1)n1cc(-c2nccc(Nc3cc(N[C@H]4CC[C@@H](NCCF)CC4)c(-c4ccc(CO)cn4)cn3)n2)cn1" , is the recorded IC50 below the cut-off of 0.8 nM?
rule met

====

target: EGFR del19/T790M/C797S (Homo sapiens, UniProt P00533, C797S/DEL746-750/T790M); experiment: Biochemical EGFR kinase assay (Lance Ultra TR-FRET), triple mutant del19/T790M/C797S; conditions: IC50 del19/T790M/C797S, 100 μM ATP
Sequence (P00533 with tags, fused parts or gaps DEL746-750/T790M/C797S): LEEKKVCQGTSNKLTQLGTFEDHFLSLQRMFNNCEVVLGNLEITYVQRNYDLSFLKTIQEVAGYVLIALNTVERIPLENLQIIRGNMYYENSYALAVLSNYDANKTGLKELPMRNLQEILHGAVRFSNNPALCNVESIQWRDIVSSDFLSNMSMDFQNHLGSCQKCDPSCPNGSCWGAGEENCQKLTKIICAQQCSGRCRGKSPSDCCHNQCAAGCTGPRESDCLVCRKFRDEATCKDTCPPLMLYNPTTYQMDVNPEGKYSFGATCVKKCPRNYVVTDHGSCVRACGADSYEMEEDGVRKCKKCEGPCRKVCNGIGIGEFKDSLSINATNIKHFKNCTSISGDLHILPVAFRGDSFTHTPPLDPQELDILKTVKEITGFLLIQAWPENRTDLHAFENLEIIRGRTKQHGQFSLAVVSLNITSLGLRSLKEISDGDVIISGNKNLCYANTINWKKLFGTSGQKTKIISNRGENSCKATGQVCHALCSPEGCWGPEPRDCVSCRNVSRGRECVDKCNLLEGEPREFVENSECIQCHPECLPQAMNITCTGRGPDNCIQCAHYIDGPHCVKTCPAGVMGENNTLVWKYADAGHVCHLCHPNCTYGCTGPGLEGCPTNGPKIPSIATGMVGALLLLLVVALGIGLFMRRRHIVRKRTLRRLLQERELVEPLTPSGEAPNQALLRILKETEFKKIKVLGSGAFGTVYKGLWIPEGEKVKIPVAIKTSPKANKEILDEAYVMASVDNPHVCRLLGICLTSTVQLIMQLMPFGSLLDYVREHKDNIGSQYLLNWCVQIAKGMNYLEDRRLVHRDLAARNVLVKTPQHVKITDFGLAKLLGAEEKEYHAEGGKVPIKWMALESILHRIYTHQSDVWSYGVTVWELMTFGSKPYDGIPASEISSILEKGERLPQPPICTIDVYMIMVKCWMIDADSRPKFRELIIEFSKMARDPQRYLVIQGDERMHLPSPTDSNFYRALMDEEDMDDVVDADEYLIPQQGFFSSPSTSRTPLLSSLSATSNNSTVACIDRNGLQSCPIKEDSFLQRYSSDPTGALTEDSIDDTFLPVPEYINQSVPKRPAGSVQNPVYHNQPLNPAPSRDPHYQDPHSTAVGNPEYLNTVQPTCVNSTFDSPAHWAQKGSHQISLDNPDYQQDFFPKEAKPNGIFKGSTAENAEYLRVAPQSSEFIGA
value_type: pIC50
Numbers only, as −log10 of the molar value.

// worked examples, pIC50 included
CN1CCC(Oc2cccc(-c3cnc(Nc4ccnc(-c5cnn(S(=O)(=O)C6CC6)c5)n4)cc3N[C@H]3CC[C@@](C)(O)CC3)n2)CC1 ... 9.52
O=S(=O)(C1CC1)n1cc(-c2nccc(Nc3cc(N[C@H]4CC[C@@H](NCCF)CC4)c(-c4cccc(F)n4)cn3)n2)cn1 ... 9.70

Could you now consider this next compound?
What value of pIC50 has been recorded for this entry: "CS(=O)(=O)c1ccc(-c2cnc(Nc3ccnc(-c4cnn(S(=O)(=O)C5CC5)c4)n3)cc2N[C@H]2CC[C@@H](CO)CC2)nc1"
9.52

====

target: EGFR del19/T790M/C797S (Homo sapiens, UniProt P00533, C797S/DEL746-750/T790M); test: Biochemical EGFR kinase assay (Lance Ultra TR-FRET), triple mutant del19/T790M/C797S; conditions: IC50 del19/T790M/C797S, 100 μM ATP
Give pIC50 for every item shown.
Answers are plain numbers, as −log10 of the molar value.

# batch: return pIC50 for each of the 2 compounds below
1. O=S(=O)(C1CC1)n1cc(-c2nccc(Nc3cc(N[C@H]4CCC[C@H](CO)C4)c(-c4ccc(C(O)C(F)(F)F)cn4)cn3)n2)cn1 (some centres unmarked)
2. CC(F)(F)c1ccc(-c2cnc(Nc3ccnc(-c4cnn(S(=O)(=O)C5CC5)c4)n3)cc2N[C@H]2CC[C@@H](C(C)(C)O)CC2)nc1

1: 8.54; 2: 8.01

# batch: return pIC50 for each of the 8 compounds below
1. CC(C)(O)[C@H]1CC[C@@H](Nc2cc(Nc3ccnc(-c4cnn(S(=O)(=O)C5CC5)c4)n3)ncc2-c2cc(NC3CC(F)(F)C3)ccn2)CC1
2. CN1CCN(C(=O)c2ccc(-c3cnc(Nc4ccnc(-c5cnn(S(=O)(=O)C6CC6)c5)n4)cc3N[C@H]3CC[C@@H](CN(C)C)CC3)nc2)CC1
3. CC(C)(O)[C@H]1CC[C@@H](Nc2cc(Nc3ccnc(-c4cnn(S(=O)(=O)C5CC5)c4)n3)ncc2-c2ccc(S(=O)(=O)N3CCOCC3)cn2)CC1
4. CN1CCN(C(=O)c2ccc(-c3cnc(Nc4ccnc(-c5cnn(S(=O)(=O)C6CC6)c5)n4)cc3N[C@H]3CC[C@@H](CO)CC3)nc2)CC1
5. CN(C)C[C@H]1CC[C@@H](Nc2cc(Nc3ccnc(-c4cnn(S(=O)(=O)C5CC5)c4)n3)ncc2-c2cc(NC3CC(F)(F)C3)ccn2)CC1
6. CS(=O)(=O)c1ccc(-c2cnc(Nc3ccnc(-c4cnn(S(=O)(=O)C5CC5)c4)n3)cc2N[C@H]2CC[C@@](C)(O)CC2)nc1
7. CN(C)C[C@H]1CC[C@@H](Nc2cc(Nc3ccnc(-c4cnn(S(=O)(=O)C5CC5)c4)n3)ncc2-c2cccc(CC(F)(F)F)n2)CC1
8. CN(C)CCOc1ccc(-c2cnc(Nc3ccnc(-c4cnn(S(=O)(=O)C5CC5)c4)n3)cc2N[C@H]2CC[C@@](C)(O)CC2)nc1

1. 7.60
2. 10.00
3. 8.55
4. 9.52
5. 8.92
6. 9.70
7. 9.40
8. 9.70

# batch: return pIC50 for each of the 2 compounds below
1. C[C@]1(O)CC[C@@H](Nc2nccc(-c3cnc(Nc4ccnc(-c5cnn(S(=O)(=O)C6CC6)c5)n4)cc3N[C@H]3CC[C@@](C)(O)CC3)n2)CC1
2. CC(C)(O)[C@H]1CC[C@@H](Nc2cc(Nc3ccnc(-c4cnn(S(=O)(=O)C5CC5)c4)n3)ncc2-c2ccc(OCCN3CCC3)cn2)CC1

8.77
9.15

# batch: return pIC50 for each of the 2 compounds below
1. CN1CCN(S(=O)(=O)c2ccc(-c3cnc(Nc4ccnc(-c5cnn(S(=O)(=O)C6CC6)c5)n4)cc3N[C@H]3CC[C@@](C)(O)CC3)nc2)CC1
2. CN(C)CCOc1ccc(-c2cnc(Nc3ccnc(-c4cnn(S(=O)(=O)C5CC5)c4)n3)cc2N[C@H]2CC[C@@H](C(C)(C)O)CC2)nc1

[8.96, 9.40]
